Tested system: rat GnRH receptor (Rattus norvegicus, UniProt P30969)
Sequence (P30969 1-327): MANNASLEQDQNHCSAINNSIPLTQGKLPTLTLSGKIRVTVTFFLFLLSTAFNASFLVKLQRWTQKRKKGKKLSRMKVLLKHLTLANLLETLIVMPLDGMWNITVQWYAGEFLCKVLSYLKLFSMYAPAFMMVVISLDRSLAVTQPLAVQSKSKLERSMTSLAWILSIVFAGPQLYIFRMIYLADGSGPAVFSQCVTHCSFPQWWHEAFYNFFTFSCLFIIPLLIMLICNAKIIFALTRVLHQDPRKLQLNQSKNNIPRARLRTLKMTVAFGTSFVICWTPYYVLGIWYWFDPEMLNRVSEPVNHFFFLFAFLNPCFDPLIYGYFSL
Task for the reader: assign each of the following compounds its reported pKi.
For clarity, pKi is expressed as the negative log10 of concentration in mol/L.

Q: Entry Cc1cc2c(c(Br)c1Oc1ccc(C(=O)NNc3cc(C)c4c(C)nn(C)c4n3)o1)C(C)(C)CCC2 has what pKi?
Result: 6.10

Q: Entry Cc1cc(NNC(=O)c2ccc(Oc3cc(C(C)(C)C)ccc3Br)o2)nc2c1c(C)nn2C has what pKi?
Result: 7.10

Q: Entry Cc1cc2c(cc1Cc1ccc(C(=O)NNc3ccc(C(F)(F)F)cn3)o1)C(C)(C)CCC2(C)C has what pKi?
Result: 7.33

Q: Entry Cc1cc2c(cc1Oc1ccc(C(=O)NNc3cc(C)c4c(C)nn(C)c4n3)o1)C(c1ccccc1)CCC2 (centres unmarked) has what pKi?
Result: 6.81

Q: Entry Cc1cc2c(c(O)c1Oc1ccc(C(=O)NNc3cc(C)c4c(C)nn(C)c4n3)o1)C(C)(C)CCC2(C)C has what pKi?
Result: 7.19

Q: Entry Cc1cc(C(F)(F)F)cc(NNC(=O)c2ccc(Cc3cc4c(cc3C)C(C)(C)CCC4(C)C)o2)n1 has what pKi?
Result: 6.62

Q: Entry Cc1ccc(C2CCCCC2)cc1Cc1ccc(C(=O)NNc2cc(C)c3c(C)nn(C)c3n2)o1 has what pKi?
Result: 6.91

Q: Entry Cc1cc(C)c(C)c(Cc2ccc(C(=O)NNc3cc(C)c4c(C)nn(C)c4n3)o2)c1C has what pKi?
Result: 5.92

Q: Entry Cc1cc2c(cc1Oc1ccc(C(=O)NNc3cc(C)c4c(C)nn(C)c4n3)o1)C(C)(C)CCC2(C)C has what pKi?
Result: 8.07

Q: Entry Cc1cc2c(cc1Cc1ccc(C(=O)NNc3cc(C)c4c(C)nn(C)c4n3)o1)C(C)(C)OC2(C)C [Example E1] has what pKi?
Result: 8.05

Q: Entry Cc1cc2c(cc1Oc1ccc(C(=O)NNc3ccc(C(F)(F)F)cn3)o1)C(C)(C)C(C)C2(C)C (centres unmarked) has what pKi?
Result: 7.54

Q: Entry Cc1cc(Cl)c(C(C)C)cc1Oc1ccc(C(=O)NNc2cc(C)c3c(C)nn(C)c3n2)o1 has what pKi?
Result: 6.43

Q: Entry Cc1cc(C)c(-c2ccccc2)cc1Cc1ccc(C(=O)NNc2cc(C)c3c(C)nn(C)c3n2)o1 has what pKi?
Result: 6.54

Q: Entry Cc1cc2c(cc1Cc1ccc(C(=O)NNc3nc(N)nc(C4CC4)n3)o1)C(C)(C)CCC2(C)C has what pKi?
Result: 8.22

Q: Entry COc1c(Oc2ccc(C(=O)NNc3cc(C)c4c(C)nn(C)c4n3)o2)c(C)cc2c1C(C)(C)CCC2(C)C has what pKi?
Result: 8.38

Q: Entry Cc1ccc(C(C)(C)C)cc1Oc1ccc(C(=O)NNc2cc(C)c3c(C)nn(C)c3n2)o1 has what pKi?
Result: 7.41

Q: Entry Cc1cc2c(cc1Cc1ccc(C(=O)NNc3ncccc3C(F)(F)F)o1)C(C)(C)CCC2(C)C has what pKi?
Result: 7.08

Q: Entry Cc1ccc(C(C)(C)C)cc1Cc1ccc(C(=O)NNc2cc(C)c3c(C)nn(C)c3n2)o1 has what pKi?
Result: 7.70

Q: Entry Cc1cc2c(cc1Oc1ccc(C(=O)NNc3cc(C)c4c(C)nn(C)c4n3)o1)C(C)(C)CC2 has what pKi?
Result: 7.77

Q: Entry Cc1cc2c(cc1Oc1ccc(C(=O)NNc3cc(C)c4c(C)nn(C)c4n3)o1)C(C)(C)CCC2 has what pKi?
Result: 7.66

Q: Entry Cc1cc2c(cc1Cc1ccc(C(=O)NNc3cc(C)c4c(C)nn(C)c4n3)o1)C(C)(C)CCC2 has what pKi?
Result: 7.77

Q: Entry Cc1cc2c(cc1Oc1ccc(C(=O)NNc3ccc4ccccc4n3)o1)C(C)(C)CC(C)C2(C)C (centres unmarked) has what pKi?
Result: 8.14

Q: Entry Cc1cc2c(c(C)c1Oc1ccc(C(=O)NNc3cc(C)c4c(C)nn(C)c4n3)o1)C(C)(C)CCC2(C)C has what pKi?
Result: 8.42
